Assay: protein stability index of a GFP-peptide fusion (GPS, HEK-293T) (PSI 1-6); higher = more stable;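 also: 24-mer peptide tiles fused after GFP, lentivirally expressed, FACS-sorted into six equal bins by GFP/DsRed ratio, decoded by Illumina sequencing, PSI is the read-weighted mean bin number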
Settings: treatment: DMSO; c terminus: a fixed tail appended
Please assign a class to every record based on measured protein stability index, with ranges band A: < 3; band B: ≥ 3 and < 4; band C: ≥ 4

Example cases with answers are listed next.
INSERT INTO measurements (polymer_sequence, label) VALUES
  ('SPWNFLGDELYEQSDEEQDSVKVA [CLPTM1]', 'band C'),
  ('QLKVVERTRTATMLCAASGNPDPE [PTPRD]', 'band C'),
  ('RDEVRFFKGNKYWAVQGQNVLHGY [MMP1]', 'band A'),
  ('MEKFREDEGFIKEEERPLPEKEYQ [KCNA1]', 'band C'),
  ('PGPPGPTGVPGSPGHIGPPGPTGP [EMID1]', 'band C'),
  ('GDKCHSLVGKPKIFIIQACRGNQH [CASP6]', 'band A');

For RLENRYEALAKQVASEMRFVQDLV [DAPK3] , which protein stability index bin applies?
band A

Which class holds MNHFTVNLNREEKIIREIDFYRED [TRIM55] ?
band B

Category of LMSLQNQLKESKSKIDALSSEKLN [CEP70] , please.
band C

Class (by measured protein stability index) for QGLIEDCQLALQQKRETLSPLCLI [KCTD13]
band A

Dear colleague, I would appreciate it if you could identify the bin for DHEDFTGSSSLGFTSSPSPFSSSS [FCHO1] and reply at your convenience.
band C

Which bin, given its protein stability index, does FMLEIVTPTSLSSLSNAVANTMEH [FBXO33] occupy?
band A

Bin this entry: ALRQTVEADVNGLRRVLDELTLAR [KRT16]
band B

Please let me know in which category the item LASYLDRVRSLETENRRLESKIRE [KRT18] belongs.
band B

Would you mind sorting RHCKKYWLISEEEKTQKNQCWKSL [FBXO3] into the appropriate category?
band A

Sort into band: AIEHFQPNADLLFSDPSQSDPETK [FCHO1]
band C

Determine which band this sequence sits in: VAFVCAFSEALAEGAVKMGMPSSL [PYCR3]
band B

GET /class?item= ILNLTQALKDNKSPLHLVQMPPVI [PI4K2A]
band A

* * *

// reported protein stability index for each item listed
Assay: protein stability index of a GFP-peptide fusion (GPS, HEK-293T) (PSI 1-6); higher = more stable
Conditions: treatment: MLN4924 1 uM, 8 h; c terminus: a fixed tail appended
Enter a number only.

INSERT INTO assay_data (polymer_sequence, observed_property, readout_number) VALUES
  ('KELVEFAQDDDRLREERKKAKKNK [CLINT1]', 'protein stability index', 5.53),
  ('EVLVGKTIEQSLLEVMEEEELANL [RSPH3]', 'protein stability index', 4.91),
  ('KSEYMEIEEDMNNSIAHYRQVNIR [KCNA1]', 'protein stability index', 3.57),
  ('AVSCPYLPSNLLKKFRSSTSSSLG [KCNA4]', 'protein stability index', 2.58),
  ('SSPVTTLTQTMHDLAGLGSETPKS [CDC25B]', 'protein stability index', 5.13),
  ('ISPETMVALLTGKFSNIVDKFVIV [CDC25B]', 'protein stability index', 2.38),
  ('VWDMRSGQCVQAFETHESDINSVR [GNB5]', 'protein stability index', 3.56),
  ('EEENDYRNLDASPTYKGLLMSLQN [CEP70]', 'protein stability index', 3.63),
  ('TKRDSFLKRLYRAPIDWIEEYTTG [ALG2]', 'protein stability index', 2.23),
  ('ENVVHGHILAAEQLSRDSTLGGKA [NSDHL]', 'protein stability index', 4.6);

Entry under review: EESRDPTLYANNVQRVMAQALGIP [LPCAT4] . Reported protein stability index?
3.89

Entry PSDLDSTGNSLNEPEEPSEIPERR [DLC1] : reported protein stability index = ?
5.62

Requested field: protein stability index. Item: EEPVFEAVINWVKHAKKEREESLP [KLHL12]
4.17

Consider the sequence TIVNFPITNVDLREYLSEEVQAVH [USP39] and give its measured protein stability index.
3.41

Any idea what its protein stability index is? The sequence is RLHLAFKRQVPTEQAQAYAERLGV [RAB40B]
3.1

Entry YSLFVGLFLFGYKFSGLYILSFTV [SLC35F2] : reported protein stability index = ?
3.07

So what does the record say about protein stability index for QQQQLTFTAALEHCRENAHDKIRP [SPACA9] ?
4.03

So what does the record say about protein stability index for IKSVKESLQESVEDSLATVKVVLI [IQUB] ?
2.44

Quick one: protein stability index of VRYSDCCERVVINVSGLRFETQMK [KCNA4] ?
2.33

Record request: protein stability index value, item QQWFPSLELGHWLYQTELVENECY [TOR1AIP2]
2.34

So what does the record say about protein stability index for HWDLAELLPNQSHGNQSAGEDQAF [SLC22A15] ?
4.8

Requested read-out: protein stability index. Entry: PEGTENPLGVDESLFSYGLRESIA [SLA]
4.19
